Biological target: human CD33 V136A (human, UniProt P20138 18-364)
Sequence (P20138 18-364 V136A limits assumed): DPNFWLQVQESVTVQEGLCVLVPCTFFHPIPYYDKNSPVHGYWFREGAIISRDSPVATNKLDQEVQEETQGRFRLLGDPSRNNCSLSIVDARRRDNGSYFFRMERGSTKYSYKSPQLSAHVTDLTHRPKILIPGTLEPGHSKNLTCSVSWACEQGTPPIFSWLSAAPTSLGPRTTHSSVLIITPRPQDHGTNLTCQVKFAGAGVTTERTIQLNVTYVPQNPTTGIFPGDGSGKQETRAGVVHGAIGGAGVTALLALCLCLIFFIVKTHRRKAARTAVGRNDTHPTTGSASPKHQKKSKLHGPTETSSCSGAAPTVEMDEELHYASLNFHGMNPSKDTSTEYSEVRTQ
Assay: flow cytometry on HEK293-T, alanine scan
measurement type: Mean % WT Binding

# Mean % WT Binding of Refmab #3 (antibody, V domains shown, The alanine scan used IgG or Fab) VH: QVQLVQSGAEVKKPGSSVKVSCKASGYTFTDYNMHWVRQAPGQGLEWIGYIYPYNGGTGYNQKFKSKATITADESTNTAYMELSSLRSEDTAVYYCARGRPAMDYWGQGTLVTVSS VL: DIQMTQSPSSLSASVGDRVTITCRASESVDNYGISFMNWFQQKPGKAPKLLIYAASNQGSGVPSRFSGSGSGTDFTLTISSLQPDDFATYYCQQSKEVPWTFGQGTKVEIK = 106 % WT binding
